Ref: patent US20230293517A1

# measurement.target: human Adenosine A2b receptor (Homo sapiens (Human))
# Sequence (P29275 whole entry): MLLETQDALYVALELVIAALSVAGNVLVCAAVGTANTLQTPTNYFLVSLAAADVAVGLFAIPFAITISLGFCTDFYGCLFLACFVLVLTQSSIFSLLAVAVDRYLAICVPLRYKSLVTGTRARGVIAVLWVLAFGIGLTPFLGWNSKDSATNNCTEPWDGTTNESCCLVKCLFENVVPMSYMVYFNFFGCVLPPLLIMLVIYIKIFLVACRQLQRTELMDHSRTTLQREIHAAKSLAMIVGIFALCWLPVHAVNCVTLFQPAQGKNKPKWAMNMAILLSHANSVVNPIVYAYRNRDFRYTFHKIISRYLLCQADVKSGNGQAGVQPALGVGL
# method.notes: Adenosine receptor TR-FRET binding assay (A2b)
# condition.info: TR-FRET, inhibition of binding of 30 nM CA200645, CHO cell membranes
pKi: −log10 of the molar value.
endpoint.label: pKi

# molecule, pKi
records = [
    ("Cc1cc(-c2sc(NC(=O)N3C[C@H]4COC[C@H]4C3)nc2-c2cccc(C#N)c2)cc(C)n1 [Example 6.49]", 8.66),
    ("Cc1cc(-c2sc(NC(=O)N3CCC4(CC3)NC(=O)N(C)C4=O)nc2-c2cccc(C#N)c2)cc(C)n1 [Example 6.6]", 8.89),
]

a = Cc1cc(-c2sc(NC(=O)N3CC4(CCOC(=O)N4)C3)nc2-c2cccc(C#N)c2)cc(C)n1 [Example 6.34]
b = Cc1cc(-c2sc(NC(=O)N3CC[C@@](C)(C#N)C3)nc2-c2cccc(C#N)c2)cc(C)n1 [Example 27a]
Ask | Field: lower pKi | Options: a / b Give the label of your selection.
Reply | a
